Values from patent US11780851B2

# ASSAY PROCEDURE: Minipig B/P (brain disposition)
# Assay type: in vivo, female Gottingen minipigs
# REPORTED CONDITIONS: female, Gottingen, intravenous, total brain:total plasma concentration ratio, time point 2.00 h, mean ± stdev, n = 3
METRIC: Kp at 2 h

- [2H]C([2H])([2H])c1c2c(nn1C1CCOCC1)OCCCn1nc(Cl)c3cnc(nc31)N2: 1.63

====

# ASSAY PROCEDURE: Minipig B/P (brain disposition)
# Type: in vivo, female Gottingen minipigs
# REPORTED CONDITIONS: female, Gottingen, plasma, IV bolus 0.28 mg/kg + IV infusion 0.60 mg/kg, time point 0.50 h, mean ± stdev, n = 3, read-out: CTotal, plasma
METRIC: concentration at 0.5 h (ng/mL)

- [2H]C([2H])([2H])c1c2c(nn1C1CCOCC1)OCCCn1nc(Cl)c3cnc(nc31)N2: 89

====

# ASSAY PROCEDURE: Rat B/P (brain disposition)
# Type: in vivo, male Sprague-Dawley rats
# REPORTED CONDITIONS: male, Sprague-Dawley, brain, oral gavage 3 mg/kg, time point 1.0 h, mean ± stdev, n = 3, read-out: Total brain concentration
METRIC: concentration at 1 h (ng/g)

- [2H]C([2H])([2H])c1c2c(nn1C1CCOCC1)OCCCn1nc(Cl)c3cnc(nc31)N2: 597

====

# ASSAY PROCEDURE: Rat B/P (brain disposition)
# Format: in vivo, male Sprague-Dawley rats
# REPORTED CONDITIONS: male, Sprague-Dawley, brain, oral gavage 3 mg/kg, time point 1.0 h, Table 8, read-out: Total brain concentration
METRIC: concentration at 1 h

* [2H]C([2H])([2H])c1c2c(nn1C1CCOCC1)OCCCn1nc(Cl)c3cnc(nc31)N2 [Example 13] | 597 ng/mL

====

# ASSAY PROCEDURE: Rat B/P (brain disposition)
# Assay type: in vivo, male Sprague-Dawley rats
# REPORTED CONDITIONS: male, Sprague-Dawley, brain/plasma, po, 1 mg/kg, oral gavage 1 mg/kg, time point 1.0 h, fubrain from brain homogenate
METRIC: Kp uu at 1 h

- [2H]C([2H])([2H])c1c2c(nn1C1CCOCC1)OCCCn1nc(Cl)c3cnc(nc31)N2: 0.38

====

# MEASURED TARGET: LRRK2 G2019S (Homo sapiens, UniProt Q5S007, G2019S)
# Construct: purchased Invitrogen (Life Technologies Corporation)
# Sequence (Q5S007 970-2527 G2019S): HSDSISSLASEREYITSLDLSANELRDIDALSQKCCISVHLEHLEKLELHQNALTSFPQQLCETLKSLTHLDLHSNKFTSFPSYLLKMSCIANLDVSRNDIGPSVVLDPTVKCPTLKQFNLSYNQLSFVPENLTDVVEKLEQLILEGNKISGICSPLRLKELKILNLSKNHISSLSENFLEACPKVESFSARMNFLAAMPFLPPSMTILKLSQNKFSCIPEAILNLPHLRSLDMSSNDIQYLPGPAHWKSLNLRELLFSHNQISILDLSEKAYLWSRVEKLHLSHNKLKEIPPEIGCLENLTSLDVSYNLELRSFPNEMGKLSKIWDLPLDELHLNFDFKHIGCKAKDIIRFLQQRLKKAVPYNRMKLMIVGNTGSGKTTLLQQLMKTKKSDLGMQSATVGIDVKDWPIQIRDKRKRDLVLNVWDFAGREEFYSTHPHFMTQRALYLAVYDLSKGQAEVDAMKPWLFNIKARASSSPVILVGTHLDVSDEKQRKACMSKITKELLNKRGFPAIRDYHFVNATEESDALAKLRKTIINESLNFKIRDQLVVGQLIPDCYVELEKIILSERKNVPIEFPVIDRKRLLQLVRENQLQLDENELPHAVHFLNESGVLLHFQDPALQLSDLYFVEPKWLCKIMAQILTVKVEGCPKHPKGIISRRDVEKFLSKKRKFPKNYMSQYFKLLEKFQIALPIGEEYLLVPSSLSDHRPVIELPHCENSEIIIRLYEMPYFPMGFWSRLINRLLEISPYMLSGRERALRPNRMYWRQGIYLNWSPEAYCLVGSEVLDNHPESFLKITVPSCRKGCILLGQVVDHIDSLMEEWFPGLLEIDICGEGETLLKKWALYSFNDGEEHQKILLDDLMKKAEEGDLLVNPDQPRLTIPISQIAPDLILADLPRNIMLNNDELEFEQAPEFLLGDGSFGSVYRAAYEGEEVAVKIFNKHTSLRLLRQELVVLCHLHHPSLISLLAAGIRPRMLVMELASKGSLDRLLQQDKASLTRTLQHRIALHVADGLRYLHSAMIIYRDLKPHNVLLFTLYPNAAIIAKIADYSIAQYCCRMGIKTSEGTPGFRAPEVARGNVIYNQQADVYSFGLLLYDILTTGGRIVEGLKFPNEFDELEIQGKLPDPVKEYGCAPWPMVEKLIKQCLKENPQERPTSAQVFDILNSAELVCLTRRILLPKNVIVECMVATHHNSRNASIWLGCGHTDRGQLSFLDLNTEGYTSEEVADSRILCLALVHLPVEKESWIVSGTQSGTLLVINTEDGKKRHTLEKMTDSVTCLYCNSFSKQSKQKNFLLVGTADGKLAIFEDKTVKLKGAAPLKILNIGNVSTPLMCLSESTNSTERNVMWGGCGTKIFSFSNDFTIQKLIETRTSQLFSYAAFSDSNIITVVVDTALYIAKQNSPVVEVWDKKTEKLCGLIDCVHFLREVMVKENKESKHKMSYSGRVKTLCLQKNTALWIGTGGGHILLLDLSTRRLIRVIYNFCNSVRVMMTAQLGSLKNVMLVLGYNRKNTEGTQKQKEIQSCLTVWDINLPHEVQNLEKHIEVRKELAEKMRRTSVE
# ASSAY PROCEDURE: LRRK2 G2019S kinase activity assay (LanthaScreen TR-FRET)
# Type: biochemical
# REPORTED CONDITIONS: 250 pM LRRK2 G2019S, 1.3 mM ATP, 3 h at 30° C.; n≥2 tests
METRIC: IC50 (nM)

• [2H]C1([2H])Oc2nn(C3CCOCC3)c(C)c2Nc2ncc3c(Cl)nn(c3n2)C([2H])([2H])C1([2H])[2H] = 5.1
• Cc1c2c(nn1[C@H]1CCCOC1)OCCCn1nc(Cl)c3cnc(nc31)N2 (single isomer, unassigned) [Example 3] = 2.2
• [2H]C([2H])([2H])c1c2c(nn1C1([2H])CCOCC1)OCCCn1nc(Cl)c3cnc(nc31)N2 = 2.4
• Cc1c2c(nn1[C@H]1CCOC[C@]1(C)F)OCCCn1nc(Cl)c3cnc(nc31)N2 (single isomer, unassigned) [Example 47] = 3.1
• Cc1c2c(nn1C1CCOCC1)OCCCn1nc(C#N)c3cnc(nc31)N2 = 57
• CCc1c2c(nn1[C@@H]1CCOC[C@H]1F)OCCCn1nc(Cl)c3cnc(nc31)N2 (single isomer, unassigned) [Example 55] = 1.5
• [2H]C([2H])([2H])c1c2c(nn1[C@@H]1CCCOC1)OCCCn1nc(Cl)c3cnc(nc31)N2 (single isomer, unassigned) [Example 61] = 10
